- Target under test: T1, mouse folate receptor alpha (mFRα), recombinant protein (mouse, UniProt P35846 25-232)
- T1 construct: Bought recombinant proteins (e.g. biotinylated, Acro Biosystems FO1-M82E9); also called mFOLR1; Ms FOLR1
- T1 sequence (P35846 25-232 limits assumed): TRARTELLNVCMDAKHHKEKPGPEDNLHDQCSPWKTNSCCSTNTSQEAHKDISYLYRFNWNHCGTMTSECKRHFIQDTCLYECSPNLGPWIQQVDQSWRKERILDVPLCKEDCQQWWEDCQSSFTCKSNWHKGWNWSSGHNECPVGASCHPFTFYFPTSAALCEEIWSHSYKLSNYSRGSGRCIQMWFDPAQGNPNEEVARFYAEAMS
- Test: BLI
koff for assorted binders
Readout label: koff (s⁻¹)

>  <Binder>
P01500082: P0150001 with A24V, S27L, M32I (VHH) VHH: EVQLVESGGGLVQPGGSLRLSCAVSGLGFSGIIMGWYRQAPGKQRELVATVTSHGTTNYADSVKGRFTISRDNAKNTVYLQMNSLRPEDTAVYYCNAHFPGIYWGKGTLVTVSS

>  <Readout label>
koff

>  <Reported result>
0.0618

$$$$
>  <Binder>
P01500089: P0150001 with S27T, M32I, N76D (VHH) VHH: EVQLVESGGGLVQPGGSLRLSCAASGTGFSGIIMGWYRQAPGKQRELVATVTSHGTTNYADSVKGRFTISRDNAKDTVYLQMNSLRPEDTAVYYCNAHFPGIYWGKGTLVTVSS

>  <Readout label>
koff

>  <Reported result>
0.00614

$$$$
>  <Binder>
P01500012: P0150001 with M32I (VHH, Entry carries a His6 tag) VHH: EVQLVESGGGLVQPGGSLRLSCAASGSGFSGIIMGWYRQAPGKQRELVATVTSHGTTNYADSVKGRFTISRDNAKNTVYLQMNSLRPEDTAVYYCNAHFPGIYWGKGTLVTVSS

>  <Readout label>
koff

>  <Reported result>
0.00762

$$$$
>  <Binder>
P01500090: P0150001 with A24V, S27L, M32P, N67E (VHH) VHH: EVQLVESGGGLVQPGGSLRLSCAVSGLGFSGPIMGWYRQAPGKQRELVATVTSHGTTNYADSVKGRFTISRDNAKETVYLQMNSLRPEDTAVYYCNAHFPGIYWGKGTLVTVSS

>  <Readout label>
koff

>  <Reported result>
0.00346

$$$$
